Overview of recorded # clones recovered for various sequences
test system: ADT-perturbed human prostate cancer vasculature; test: In vivo selection of Ph.D.-12 phage display library against ADT-perturbed human prostate cancer xenografts, NextGen sequencing of recovered phage; conditions: third round of in vivo selection, data of the two tumor specimens combined
OBSERVED PROPERTY: # clones recovered

SEQUENCE ENTRY	VALUE
TMGFTAPRFP	9
TLQRTHFSAGVF	116
TMGFTAPRFQHY	2
KPPQNTSAPYLR	2
KPPQNTSAPY	2
